Reference for the values: PubChem BioAssay AID179

Test system: CEM cells HIV-1 protection, formazan growth assay
method: NCI AIDS Antiviral Assay;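 active = compounds giving half or more protection of infected cells from virus-caused growth loss, again on retest; inactive = the rest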
Method: The ability of compounds to protect human CEM cells from HIV-1 infection is measured as a screen for new compounds capable of inhibiting the HIV virus. Five concentrations of drug were tested on uninfected and infected cells and cell growth was measured using a soluble formazan assay. […] Compounds that provided at least 50% protection were retested. Compounds that provided at least 50% protection on retest were listed as moderately active. […]
Outcomes: true = active, false = inactive

{"molecule": "O=c1c(-c2c(-c3ccccc3)oc3ccc(Cl)cc3c2=O)c(-c2ccccc2)oc2ccc(Cl)cc12", "assigned.category": "false"}
{"molecule": "CCN(CC)CC(C(=O)Nc1c(C)cccc1C)/C(C)=N\\NC(=O)c1ccncc1 (configuration not stated)", "assigned.category": "false"}
{"molecule": "CCOC(=O)c1nc2ccccc2nc1Oc1ccc(F)cc1", "assigned.category": "false"}
{"molecule": "CCOC(=O)N1N=C(/C(C)=N/OC)C(C)S1=O (configuration not stated)", "assigned.category": "false"}
{"molecule": "O=C(C[P+](c1ccccc1)(c1ccccc1)c1ccccc1)c1ccc([N+](=O)[O-])cc1", "assigned.category": "false"}
{"molecule": "C/C(=N\\NS(=O)(=O)c1ccc(C)cc1)C(CN(C)C)C(c1ccccc1)c1c(O)c2ccccc2oc1=O (configuration not stated)", "assigned.category": "false"}
{"molecule": "CCCCCc1cc(O)cc2c1Oc1cc(O)cc(C(=O)CCCC)c1C(=O)O2", "assigned.category": "false"}
{"molecule": "CC(=O)CC(c1ccccc1)c1c(O)c2ccccc2oc1=O (configuration not stated)", "assigned.category": "false"}
{"molecule": "CCc1cc2c(oc3cc(C)ccc32)c(=O)[nH]1", "assigned.category": "false"}
{"molecule": "NC(CCSS(=O)(=O)O)=NCC(c1ccccc1)c1ccccc1", "assigned.category": "true"}
{"molecule": "CC(=O)OC(C)CC[P+](c1ccccc1)(c1ccccc1)c1ccccc1 (configuration not stated)", "assigned.category": "false"}
{"molecule": "CC1C[P+](c2ccccc2)(c2ccccc2)Cc2ccccc21 (configuration not stated)", "assigned.category": "false"}
{"molecule": "CN(C)c1ccc(/C=C(\\C#N)c2cccc(Cl)c2)cc1", "assigned.category": "false"}
{"molecule": "COc1ccc(Cl)c(CCCCCCCC(=O)O)c1", "assigned.category": "false"}
{"molecule": "CC(=O)OC1CC2C(C)(C)C(=O)C=C[C@]2(C)C2CCC3(C)C(c4ccoc4)C(=O)[C@H]4O[C@]43[C@]12C (some centres not stated)", "assigned.category": "true"}
{"molecule": "COC1(OC)CCCc2c1no[n+]2[O-]", "assigned.category": "false"}
{"molecule": "O=C(O)CSc1n[nH]c(/C=C/c2ccccc2)n1", "assigned.category": "false"}
{"molecule": "COc1cc(-c2cc(=O)c3cc(Cl)cc(Cl)c3o2)cc(OC)c1OC", "assigned.category": "false"}
{"molecule": "CC(C)(C[NH-])C[NH-].[Cl][Pt+2][Cl]", "assigned.category": "false"}
{"molecule": "C[C@H]1Oc2c3c(c4c(c2C(=O)[C@@H]1C)OCC=C4)OCC=C3", "assigned.category": "false"}
{"molecule": "CCOC(OC(C)=O)[C@@H]1C=C[C@H](C)N(c2ccc([N+](=O)[O-])cc2)O1 (some centres not stated)", "assigned.category": "false"}
{"molecule": "CCN(CC)CCC(=O)NC1c2ccccc2Oc2ccccc21", "assigned.category": "false"}
{"molecule": "O=C(O)c1cc2cccc(S(=O)(=O)O)c2cc1O", "assigned.category": "false"}
{"molecule": "Cc1cc(C)n(-c2ccnc3cc(Cl)ccc23)n1", "assigned.category": "false"}
{"molecule": "Cc1c([C@H](C)[C@@H]2NC[C@@H](C)C[C@H]2O)ccc2c1C[C@H]1[C@H]2CC=C2C[C@@H](O)CC[C@@]21C", "assigned.category": "false"}
{"molecule": "NCCCNCCCCNC(=O)C(O)NC(=O)CCCCCCN=C(N)N (configuration not stated)", "assigned.category": "false"}
{"molecule": "O=c1[nH]c(=O)n(C2CC(O)C(CO)O2)cc1OCCc1ccccc1 (configuration not stated)", "assigned.category": "false"}
{"molecule": "COc1ccc(/C=C(/C#N)c2ccccc2)cc1", "assigned.category": "false"}
{"molecule": "CC[C@@]1(C[C@H]2C[C@@]3(C(=O)OC)c4[nH]c5ccccc5c4CCN3C2=O)COC2(CCCCC2)O1", "assigned.category": "false"}
{"molecule": "O=Cc1ccccc1COC(=O)c1cc(C(=O)OCc2ccccc2C=O)c(C(=O)OCc2ccccc2C=O)cc1C(=O)OCc1ccccc1C=O", "assigned.category": "false"}
{"molecule": "COc1cc(C2c3cc4c(cc3OC(NNS(=O)(=O)c3ccc(C)cc3)C2C)OCO4)cc(OC)c1OC (configuration not stated)", "assigned.category": "false"}
